type: physicochemical; details: Tris-hydrochloric acid buffer (pH 7.5) 50 mmol/L, magnesium chloride 5 mmol/L, evaluation compound 1 µmol/L, 37°C, 60 minutes, average of duplicate
For each record, write down the corresponding Concentration of evaluation compound decreased.
Numbers only, in µM.

Known results for compounds:
CCOC(=O)[C@H](C)NP(=O)([O-])OC[N+]1(CCCCOc2ccc3ccc(=O)[nH]c3c2)CCN(c2cccc3sccc23)CC1 [EX 156]: 0.17
CCCC(=O)OCOP(=O)([O-])OC[N+]1(CCCCOc2ccc3ccc(=O)[nH]c3c2)CCN(c2cccc3sccc23)CC1 [EX 121]: 0.09
CC(C)COC(=O)[C@@H](C)OP(=O)([O-])OC[N+]1(CCCCOc2ccc3ccc(=O)[nH]c3c2)CCN(c2cccc3sccc23)CC1 [EX 107]: 0.07
CC1(C)OCC(COP(=O)([O-])OC[N+]2(CCCCOc3ccc4ccc(=O)[nH]c4c3)CCN(c3cccc4sccc34)CC2)CO1 [EX 55]: 0.07
CCOCCOC(=O)[C@@H](C)OP(=O)([O-])OC[N+]1(CCCCOc2ccc3ccc(=O)[nH]c3c2)CCN(c2cccc3sccc23)CC1 [EX 109]: -0.02

The following compounds each have a reported value; give each one's Concentration of evaluation compound decreased.
1. Cc1ncccc1C(=O)OCOP(=O)([O-])OC[N+]1(CCCCOc2ccc3ccc(=O)[nH]c3c2)CCN(c2cccc3sccc23)CC1 [EX 81]
2. O=C(OCOP(=O)([O-])OC[N+]1(CCCCOc2ccc3ccc(=O)[nH]c3c2)CCN(c2cccc3sccc23)CC1)N1CCOCC1 [EX 160]

[-0.03, -0.01]

The following compounds each have a reported value; give each one's Concentration of evaluation compound decreased.
1. O=C(OCOP(=O)([O-])OC[N+]1(CCCCOc2ccc3ccc(=O)[nH]c3c2)CCN(c2cccc3sccc23)CC1)OC1CCCCC1 [EX 19]
2. CCNP(=O)([O-])OC[N+]1(CCCCOc2ccc3ccc(=O)[nH]c3c2)CCN(c2cccc3sccc23)CC1 [EX 151]
3. CC(C)OCCOCCOCCOC(=O)OCOP(=O)([O-])OC[N+]1(CCCCOc2ccc3ccc(=O)[nH]c3c2)CCN(c2cccc3sccc23)CC1 [EX 137]
4. CCOC(=O)OCOP(=O)([O-])OC[N+]1(CCCCOc2ccc3ccc(=O)[nH]c3c2)CCN(c2cccc3sccc23)CC1 [EX 129]

[-0.07, -0.01, 0.09, 0.09]

The following compounds each have a reported value; give each one's Concentration of evaluation compound decreased.
1. C[C@H](NP(=O)([O-])OC[N+]1(CCCCOc2ccc3ccc(=O)[nH]c3c2)CCN(c2cccc3sccc23)CC1)C(N)=O [EX 158]
2. CC(C)NC(=O)CCCC(=O)OCOP(=O)([O-])OC[N+]1(CCCCOc2ccc3ccc(=O)[nH]c3c2)CCN(c2cccc3sccc23)CC1 [EX 73]

0.07
0.13

Where these numbers come from: patent EP4707284A1
